Measured Biodistribution: Salivary gland by item
- Tested on: NRG-mice bearing LNCaP tumors
- Test Method Notes: Biodistribution (and PET/SPECT imaging) in NRG-mice bearing LNCaP tumors
- Type: in vivo
- Experimental Context: 24 h p.i., Avg
*1 amine or outer side, *2 acyl side, *3 side chain or, on linkers, in order; H or OH if unused. Where a SMILES comes first, the peptide text is derived from it. [ ]: non-standard residue; d: D form. The star is where a group is joined. ξ: configuration not given here. ξLys(Nα-CO-ξAad) = O=C(O)CCCC(NC(=O)NC(CCCCN*)C(=O)O)C(=O)O; Butanoyl(4-(4-NO2Ph)) = O=C(CCCc1ccc([N+](=O)[O-])cc1)*; DOTA = O=C(O)CN1CCN(CC(=O)O)CCN(CC(=O)*)CCN(CC(=O)O)CC1; Butanoyl(4-(4-MeO-phenyl)) = COc1ccc(CCCC(=O)*)cc1; ξAla(9-anthryl) = NC(Cc1c2ccccc2cc2ccccc12)C(=O)O; X2 = O=C(NC(CCCCN*)C(=O)O)NC(CC(F)C(=O)O)C(=O)O; X1 = O=C(C1CCC(CN[*:1])CC1)[*:2]; ξK = NCCCCC(N)C(=O)O
Response body: numeric value in % ID/g, unit text excluded.

Sample answers from the record:
- Compound: "O=C([O-])CN1CCN(CC(=O)[O-])CCN(CC(=O)NCCCCC(NC(=O)CNC(=O)CCCc2ccc([N+](=O)[O-])cc2)C(=O)NCC(=O)NCC2CCC(C(=O)NC(Cc3c4ccccc4cc4ccccc34)C(=O)NCCCCC(NC(=O)NC(CCCC(=O)O)C(=O)O)C(=O)O)CC2)CCN(CC(=O)[O-])CC1.[225Ac+3] (centres unmarked) [^225Ac-CCZ02017] ({Butanoyl(4-(4-NO2Ph))}-G[ξK](DOTA)G[X1][ξAla(9-anthryl)]-{ξLys(Nα-CO-ξAad)})"
  Observation Type: "Biodistribution: Salivary gland"
  Recorded Measurement: 0.35
- Compound: "COc1ccc(CCCC(=O)NCC(=O)NC(CCCCNC(=O)CN2CCN(CC(=O)[O-])CCN(CC(=O)[O-])CCN(CC(=O)[O-])CC2)C(=O)NCC(=O)NCC2CCC(C(=O)NC(Cc3c4ccccc4cc4ccccc34)C(=O)NCCCCC(NC(=O)NC(CC(F)C(=O)O)C(=O)O)C(=O)O)CC2)cc1.[177Lu+3] (centres unmarked) [^177Lu-CCZ02008] ({Butanoyl(4-(4-MeO-phenyl))}-G[ξK](DOTA)G[X1][ξAla(9-anthryl)]-X2)"
  Observation Type: "Biodistribution: Salivary gland"
  Recorded Measurement: 1.38
- Compound: "O=C([O-])CN1CCN(CC(=O)[O-])CCN(CC(=O)NCCCCC(NC(=O)CNC(=O)CCCc2ccc([N+](=O)[O-])cc2)C(=O)NCC(=O)NCC2CCC(C(=O)NC(Cc3c4ccccc4cc4ccccc34)C(=O)NCCCCC(NC(=O)NC(CCCC(=O)O)C(=O)O)C(=O)O)CC2)CCN(CC(=O)[O-])CC1.[177Lu+3] (centres unmarked) [^177Lu-CCZ02017] ({Butanoyl(4-(4-NO2Ph))}-G[ξK](DOTA)G[X1][ξAla(9-anthryl)]-{ξLys(Nα-CO-ξAad)})"
  Observation Type: "Biodistribution: Salivary gland"
  Recorded Measurement: 0.35
- Compound: "COc1ccc(CCCC(=O)NCC(=O)NC(CCCCNC(=O)CN2CCN(CC(=O)[O-])CCN(CC(=O)[O-])CCN(CC(=O)[O-])CC2)C(=O)NCC2CCC(C(=O)NC(Cc3c4ccccc4cc4ccccc34)C(=O)NCCCCC(NC(=O)NC(CCCC(=O)O)C(=O)O)C(=O)O)CC2)cc1.[177Lu+3] (centres unmarked) [^177Lu-HTK03170, reference compound]"
  Observation Type: "Biodistribution: Salivary gland"
  Recorded Measurement: 0.35

--- query ---
Ask | Any idea what Biodistribution: Salivary gland was measured for COc1ccc(CCCC(=O)NCC(=O)NC(CCCCNC(=O)CN2CCN(CC(=O)[O-])CCN(CC(=O)[O-])CCN(CC(=O)[O-])CC2)CC(=O)NCC2CCC(C(=O)NC(Cc3c4ccccc4cc4ccccc34)C(=O)NCCCCC(NC(=O)NC(CC(F)C(=O)O)C(=O)O)C(=O)O)CC2)cc1.[177Lu+3] (centres unmarked) [^177Lu-CCZ02019] ?
Reply | 0.56
